Assay: Quantitative highthroughput screen to assess conditional lethalithy of SEM cells grown in RPMI1640 with unreated serum (RPMI+s) (AID 1963883); note: nearly all actives have a fitted effect of over 35% in size
Conditions: SEM B-ALL cells, CellTiter-Glo viability, 48 h; series mostly up to 45.8 µM
Results filed as inconclusive are left out. The source made the active and inactive calls. Calls come from the whole dose curve; as a rule, active = well fitted cell-killing curve with a large enough effect; inconclusive = small, poorly fitted or top-dose-only effect, or effect the other way; inactive = no such curve, though single readings can be large or run the other way.
Allowed answers: Y (active), N (inactive)

Inquiry: Hello, I am checking results. What call was entered for CN[C@H]1[C@@H](O)[C@@H]2O[C@@H]3O[C@H](C)CC(=O)[C@]3(O)O[C@@H]2[C@@H](NC)[C@H]1O ?
Reply text: N

Inquiry: State the result this test recorded for O=C(NC(Cc1cc(=O)[nH]c2ccccc12)C(=O)O)c1ccc(Cl)cc1 (stereo not drawn) .
Reply text: N

Inquiry: Give the logged outcome of this assay for the following molecule: CCOC(=O)N1CCN([N+]([O-])=NOc2cc(ON=[N+]([O-])N3CCN(C(=O)OCC)CC3)c([N+](=O)[O-])cc2[N+](=O)[O-])CC1
Reply text: N

Inquiry: Which outcome was assigned to CC[C@H](C=C[C@@H](C)[C@H]1CC[C@H]2[C@@H]3CC=C4C[C@@H](O)CC[C@]4(C)[C@@H]3CC[C@]12C)C(C)C in this test?
Reply text: N

Inquiry: Which outcome was assigned to NC1=N[C@@]2(c3cc(NC(=O)c4ccc(F)cn4)ccc3F)COC[C@@H]2CS1 in this test?
Reply text: Y

Inquiry: For C[C@@H]1C[C@H]2[C@@H]3CCC4=CC(=O)C=C[C@]4(C)[C@@]3(Cl)[C@@H](O)C[C@]2(C)[C@@]1(OC(=O)c1ccco1)C(=O)CCl , which call appears in the assay record?
Reply text: N

Inquiry: Can you look up the reported call for CCCCc1ccc2nc(NC(=O)OC)[nH]c2c1 for me?
Reply text: Y

Inquiry: Which outcome did this test record for the molecule CC[C@H](C)C(=O)O[C@H]1C[C@H](O)C=C2C=C[C@H](C)[C@H](CC[C@@H](O)C[C@@H](O)CC(=O)O)[C@H]21 ?
Reply text: N

* * *

Assay: Cellular viability qHTS for adrenocortical cancer (ACC) cell line NCI-H295R (AID 1963990); note: nearly all actives have a fitted effect of over 60% in size
Details: CellTiter-Glo ATP luminescence, 48 h; series mostly up to 46.1 µM
Inconclusive results are not listed. Active and inactive are the calls of the source. Calls follow the shape of the dose curve; as a rule, active = well fitted cell-killing curve with a large enough effect; inconclusive = small, poorly fitted or top-dose-only effect; inactive = flat fitted curve, though single readings scatter.
One label from this list, please: Yes (active), No (inactive)

Inquiry: Query: recorded result category for O=c1cc(-c2ccc(O)c(O)c2)oc2cc(O)cc(O)c12 in this test
Reply text: No

Inquiry: What did the test return for Nc1ncccc1-c1nc2ccc(-c3ccccc3)nc2n1-c1ccc(C2(N)CCC2)cc1 ?
Reply text: Yes

Inquiry: What did the test return for Cc1ccc(-c2cc(C(F)(F)F)nn2-c2ccc(S(N)(=O)=O)cc2)cc1 ?
Reply text: No

Inquiry: GET /call?item= Cc1ccccc1-n1nc(-c2c(-c3ccc(F)cc3)nn3c2NC[C@@H](CO)C3)ccc1=O returns the recorded outcome of this test.
Reply text: No

Inquiry: Outcome logged for NC(=NCCCCCCN=C(N)N=C(N)Nc1ccc(Cl)cc1)N=C(N)Nc1ccc(Cl)cc1 in this assay:
Reply text: Yes

Inquiry: Recorded test outcome, item FC(F)(F)c1ccc(Nc2nc(-c3c(C(F)(F)F)nc4ccccn34)cs2)cc1
Reply text: Yes

Inquiry: Per the assay record, what outcome was assigned to Cc1c(CN2CCC(Nc3ncnc4sc(CC(F)(F)F)cc34)CC2)ccc2c1cc(C#N)n2Cc1cn[nH]c1 ?
Reply text: Yes

Inquiry: # lookup: test call for OCc1ccccc1O
Reply text: No

Inquiry: Test call, this compound: CCc1cc2c(cc1N1CCC(N3CCOCC3)CC1)C(C)(C)c1[nH]c3cc(C#N)ccc3c1C2=O
Reply text: No

Inquiry: Just curious, what result did O=C(O)c1ccccc1NCCc1ccccc1 get here?
Reply text: No

Inquiry: Can you look up the reported call for CCCCOc1ccc(CC(=O)NO)cc1 for me?
Reply text: No

Inquiry: Fill in: this test's call for C=C1C(=O)O[C@@H]2[C@H]3O[C@]3(C)CC/C=C(\C)CC[C@@H]12 is ___
Reply text: Yes

Inquiry: Could you check what this test reported for CCC[C@H](NC(=O)/C(C#N)=C/c1cccc(Br)n1)c1ccccc1 ?
Reply text: Yes

Inquiry: Which outcome did this test record for the compound O=C(NNc1ccccc1)c1ccncc1 ?
Reply text: No

Inquiry: In this assay, the call recorded for C[C@@H](O[C@H]1OCCN(Cc2n[nH]c(=O)[nH]2)[C@@H]1c1ccc(F)cc1)c1cc(C(F)(F)F)cc(C(F)(F)F)c1 was what?
Reply text: Yes

Inquiry: Field: outcome | Entry: CCOCCOC(=O)/C=C/c1ccc(OC)cc1
Reply text: No

Inquiry: Just curious, what result did CNC[C@H](O)c1cccc(O)c1 get here?
Reply text: No

Inquiry: Entry CC(=O)Nc1ccc(O)cc1 : call = ?
Reply text: No

Inquiry: Entry CC(=O)OCC(=O)[C@@]1(O)[C@H](C)C[C@H]2[C@@H]3CCC4=CC(=O)C=C[C@]4(C)[C@@]3(F)[C@@H](O)C[C@@]21C : call = ?
Reply text: No

Inquiry: Outcome? CN(C)CCCO[C@@H]1[C@H]2OC(C)(C)O[C@H]2O[C@@H]1C(O)CO (stereo not given in full)
Reply text: No

Inquiry: Returns: the outcome recorded for c1cc(Nc2cc(C3CC3)[nH]n2)nc(Nc2ccc3nc[nH]c3c2)n1 in this assay.
Reply text: Yes

Inquiry: Status in this test for O=NN(CCCl)C(=O)NC1CCCCC1 ?
Reply text: No

Inquiry: I would be grateful if you could indicate the recorded call for COc1ccc(/C(C)=C/C(=O)O)c(OC)c1 .
Reply text: No

Inquiry: Please share the test call associated with CN1C(=O)N(c2cc(Cl)cc(Cl)c2)C(=O)[C@]12CN(Cc1cc(C(=O)O)cs1)C[C@H]2c1ccc(C#N)cc1 .
Reply text: No

Inquiry: Hi team, can someone confirm the assay call for COc1ccc(C=Cc2cc(OC)c(OC)c(OC)c2)cc1NC(=O)[C@H](N)CO ?
Reply text: Yes

Inquiry: Hi, do you know how O=C(NCCS(=O)(=O)c1ccc(C(F)(F)F)cn1)c1ccc(Cl)cc1 came out in this test?
Reply text: No

Inquiry: Outcome logged for Nc1c2c(nc3ccccc13)CCCC2O (stereo not given) in this assay:
Reply text: No

Inquiry: What classification did COc1cc(OC)nc(O[C@H](C(=O)O)C(OC)(c2ccccc2)c2ccccc2)n1 end up with in this test?
Reply text: No

Inquiry: Could you please tell me the result logged for O=C(O)c1ccccn1 in this assay?
Reply text: No

Inquiry: What was the test verdict on CN(C)C(=O)COC(=O)Cc1ccc(OC(=O)c2ccc(N=C(N)N)cc2)cc1 ?
Reply text: No

Inquiry: In this assay, the call recorded for CNC(=O)c1ccc(-c2cnc3ncc(Cc4ccc5ncccc5c4)n3n2)cc1F was what?
Reply text: No

Inquiry: Per the records of this test, what outcome belongs to CC(=O)N[C@H]1[C@H](O[C@@H]2c3ccc(c(Cl)c3)Oc3cc4cc(c3O[C@@H]3O[C@H](CO)[C@@H](O)[C@H](O)[C@H]3NC(=O)CCCCCCCC(C)C)Oc3ccc(cc3Cl)C[C@H]3NC(=O)[C@H](N)c5ccc(O)c(c5)Oc5cc(O)cc(c5)[C@H](NC3=O)C(=O)N[C@H]4C(=O)N[C@H]3C(=O)N[C@@H]2C(=O)N[C@@H](C(=O)O)c2cc(O)cc(O[C@H]4O[C@H](CO)[C@@H](O)[C@H](O)[C@@H]4O)c2-c2cc3ccc2O)O[C@H](CO)[C@@H](O)[C@@H]1O ?
Reply text: No

Inquiry: How was CC(=O)c1ccc(OCC(=O)N2CCCCC2)cc1 classified in this test?
Reply text: No

Inquiry: Lab log entry: COc1cc2c(cc1OC)CN(CCc1ccc(NC(=O)c3cc(OC)c(OC)cc3NC(=O)c3cnc4ccccc4c3)cc1)CC2 — outcome as called in the assay?
Reply text: No

Inquiry: What classification did COc1ccc(NS(=O)(=O)c2ccc(N)cc2)nn1 end up with in this test?
Reply text: No

Inquiry: Name the outcome recorded for OC1(c2ccc(Cl)cc2)CCNCC1 in the assay.
Reply text: No

Inquiry: Fill in: this test's call for CCN(CC)CCOC(=O)C1(c2ccccc2)CCCC1 is ___
Reply text: No

Inquiry: Tell me the recorded outcome of this test for Nc1ncnc(Nc2ccccc2)n1 .
Reply text: No

Inquiry: Record lookup: outcome of this test for Cc1nc2ccc(C(=O)N3CCC4(CC3)CC(=O)c3c(cnn3C(C)C)C4)cc2[nH]1 ?
Reply text: No

Inquiry: Status in this test for CN1C(=O)C(Cc2c[nH]c3ccccc23)NC1=S (stereo not given) ?
Reply text: No

* * *

Assay: Viability qHTS for spleen associated tyrosine kinase inhibitor (SYKi) naive MV4-11 cells (AID 1963823); note: nearly all actives have a fitted effect of over 40% in size
Details: MV4-11 AML viability, CellTiter-Glo luminescence, 72 h; series mostly up to 45 µM
Inconclusive results are not listed. The source made the active and inactive calls. Calls come from the whole dose curve; as a rule, active = well fitted cell-killing curve with a large enough effect; inconclusive = small, poorly fitted or top-dose-only effect, or effect the other way; inactive = no such curve, though single readings can be large or run the other way.
Respond using exactly one of the listed classes: active, inactive

Inquiry: Tell me the assay call for CC(CN1c2ccccc2Sc2ccccc21)N(C)C (stereo not given) please.
Reply text: inactive

Inquiry: Give the logged outcome of this assay for the following molecule: C=C1CCC[C@]2(C)CC/C(=C(/CO)C(=O)OC)C[C@@H]12
Reply text: active

Inquiry: Given CN(CCCNC(=O)c1ccc2nc3c(c(Cl)c2c1)CCCC3)Cc1ccccc1 , state the outcome it received in this test.
Reply text: active

Inquiry: What classification did CC(C)C1NC(=O)CNC(=O)C2CCCN2C(=O)C(Cc2c[nH]c3ccccc23)NC(=O)CNC(=O)C(Cc2ccc(O)cc2)NC(=O)CNC1=O (stereo not given) end up with in this test?
Reply text: inactive

Inquiry: Just curious, what result did CCN(CC)c1ccc2c(O)c(C=Nc3ccc(CC(=O)O)c(-c4c5c(nc6ccccc46)CCC(C(=O)NN)C5)c3)c(=O)oc2c1 (stereo not given) get here?
Reply text: active
